Data provenance is PubChem BioAssay (NCI).

Test system: A549 NSCLC
protocol text: NCI tumour cell line growth inhibition, 48 h
Peptide text beside a SMILES is read from it. * marks the point of attachment. Cbz = O=C(OCc1ccccc1)*
measurement kind: TGI

1) CCOC(=O)CCC(NC(=O)CNC(=O)CNC(=O)C(CCC(=O)OCC)NC(=O)C(CCC(=O)OCC)NC(=O)C(CCC(=O)OCC)NC(=O)OCc1ccccc1)C(=O)NC(CCC(=O)OCC)C(=O)NC(CCC(=O)OCC)C(=O)OCC (configuration not stated) (Cbz-E(OEt)E(OEt)E(OEt)GGE(OEt)E(OEt)E(OEt)-OEt; configuration not given here)    > 75 µM

Okay, here is my list. What is TGI for each of these?
1. CCOc1ccc2c(c1)[n+]([O-])c(-c1ccc([N+](=O)[O-])cc1)c(N)[n+]2[O-]
2. NC(=S)N/N=C1/C(=O)N(c2ccccc2)C(=O)C1C(=O)Nc1ccccc1 (configuration not stated)
3. COC(=O)[C@]12CC[C@@H](C)[C@H](C)[C@@H]1C1=CC[C@@H]3[C@@]4(C)C(C=O)=C[C@@](C)(COC(=O)c5ccco5)C4=CC[C@@]3(C)[C@]1(C)CC2

[reply]
1: > 100 µM; 2: > 100 µM; 3: 14 µM

Okay, here is my list. What is TGI for each of these?
1. CCOC(=O)/C=C/C1=C(Br)[C@@]2(C)CC[C@@H]3c4ccc(O)cc4CC[C@H]3[C@@H]2C1
2. CC/C(=N/O)C(C)C(=O)CCC(=O)Nc1ccc(Cl)cc1 (configuration not stated)
3. COc1ccc(C2C(C(=O)O)=C(CO)Oc3cc4c(cc32)OCO4)c(OC)c1 (configuration not stated)
4. COc1cc(CO)cc2c1[nH]c1ccccc12
5. CC1=C(C(=O)NCc2ccccc2)C(c2ccc(N(C)C)cc2)C(C(=O)NCc2ccccc2)=C(C)N1

[reply]
1. 30.5 µM
2. > 100 µM
3. > 100 µM
4. > 25 µM
5. > 100 µM

Okay, here is my list. What is TGI for each of these?
1. CC(C)C(=O)CC(c1ccc(Br)cc1)N1N=C(C(C)C)CC1c1ccc(Br)cc1 (configuration not stated)
2. N#CCc1nc(-c2cc3ccc(O)cc3oc2=O)cs1
3. CCC1=NC(N/N=C/c2ccco2)=N/C1=C\c1ccco1
4. C/C(=N\NC(N)=S)C(CN1CCCCC1)C(C1=C(O)c2ccccc2OC1)c1ccccc1 (configuration not stated)
5. COc1ccc(N2C(=O)C3c4[nH]c5ccc(OC)cc5c4C4CCC(c5ccccc5)CC4C3C2=O)cc1 (configuration not stated)
6. C[C@]12O[C@@]3(C)O[C@@]3(C)[C@]3(C)O[C@]3(C)[C@@]1(C)O2

[reply]
> 100 µM
> 100 µM
> 100 µM
> 100 µM
40.3 µM
> 100 µM

Okay, here is my list. What is TGI for each of these?
1. COc1cc([N+](=O)[O-])cc2c1NC(=O)C2(C)SC (configuration not stated)
2. COc1cc(NC(=O)c2cc3ccccc3cc2O)c(OC)cc1Cl

[reply]
["> 100 µM", "7.47 µM"]

###

Tested on: M14 melanoma
protocol text: NCI tumour cell line growth inhibition, 48 h
Assignment: determine reported TGI for the given molecules.

Example molecules with recorded TGI:
1. O=C1NC(=O)C23C(=O)NC(=O)C12C1C=CC3CC1 (configuration not stated)    > 10 µM
2. CCOC(=O)CCCOc1cc(-c2ccccc2F)nc2cc3c(cc12)OCO3    > 100 µM
3. Cc1ccc([N+](=O)[O-])cc1NC(=O)/C(CC(=O)c1sc(C(N)=S)nc1C)=N\N    > 100 µM
4. C/C(=N\NC(N)=S)C(CN1CCCCC1)C(C1=C(O)c2ccccc2OC1)c1ccccc1 (configuration not stated)    > 100 µM
5. O=C(O)c1ccc2[nH]c(=O)oc2c1    > 100 µM

Okay, here is my list. What is TGI for each of these?
1. O=c1[nH]nc(Cc2ccc(Cl)cc2)n1CCO
2. C#CCn1c2c(c3ccccc3c1=O)C(=O)c1ccccc1-2
3. Cc1ccc(S(=O)(=O)Nc2cc(=O)[nH]c3c2CCC3)cc1
4. COc1ccc(/C=N/NC(=O)CSc2nc(-c3ccccc3)c(-c3ccccc3)[nH]2)cc1OC
5. CCOc1ccc2c(c1)[n+]([O-])c(-c1ccc([N+](=O)[O-])cc1)c(N)[n+]2[O-]
6. O=C(Cc1ccccc1)Nc1nc2ccc(Cl)cc2c2nc(-c3ccco3)nn12

[reply]
1: > 100 µM; 2: > 100 µM; 3: > 100 µM; 4: 33.8 µM; 5: > 100 µM; 6: > 100 µM

Okay, here is my list. What is TGI for each of these?
1. CNC(=O)OCC1=C(COC(=O)NC)CN(c2ccc(OC)cc2)C1
2. CC(C)(C)COS(=O)OCC(C)(C)C
3. CN1CCN(c2ccc(NC(=O)c3cncnc3Nc3ccc4c(ccn4Cc4cccc(F)c4)c3)cc2)CC1
4. CN(CCCNC(=O)c1nn(-c2ccccc2)c2c1Cc1ccccc1-2)CCCNC(=O)c1nn(-c2ccccc2)c2c1Cc1ccccc1-2
5. Nc1nc(N)c2cc(S(=O)(=O)c3ccccc3)ccc2n1

[reply]
> 100 µM
> 100 µM
1.22 µM
2.61 µM
> 100 µM

Okay, here is my list. What is TGI for each of these?
1. CC(C)C(=O)CC(c1ccc(Br)cc1)N1N=C(C(C)C)CC1c1ccc(Br)cc1 (configuration not stated)
2. N#CC(C#N)=C(N)/C(C#N)=C/c1ccc(O)c(O)c1
3. CC1(C)OC2C(O1)[C@H]1OC(C(Cl)(Cl)Cl)=N[C@H]1C(I)[C@H]2N1C(=O)c2ccccc2C1=O (some centres not stated)
4. C=C(C)C1Cc2cc(C(C)=O)ccc2O1 (configuration not stated)
5. CN(C(=O)C12C3(C(=O)O)C4C5(C(=O)O)C3C1(C(=O)O)C5C42C(=O)O)C(C)(C)C (configuration not stated)
6. CC(=S)NC=C(C(N)=O)C(N)=O

[reply]
1: > 100 µM; 2: > 100 µM; 3: > 100 µM; 4: > 100 µM; 5: > 100 µM; 6: > 100 µM

###

Tested on: ACHN renal
protocol text: NCI tumour cell line growth inhibition, 48 h
Assignment: determine reported TGI for the given molecules.

Okay, here is my list. What is TGI for each of these?
1. C[C@@]12[Se]c3ccccc3[C@]1(C)[Se]c1ccccc12
2. COc1cc(NC(=O)c2cc3ccccc3cc2O)c(OC)cc1Cl
3. CN1CCN(c2ccc3nc(-c4ccc5nc(CCCc6ccc(N(CCCl)CCCl)cc6)[nH]c5c4)[nH]c3c2)CC1
4. C=CCc1cccc(/C(O)=C/C(=O)/C=C/c2ccccc2Cl)c1O
5. CCN(CC)CCC(CNc1c(C)cnc2cc(Cl)ccc12)c1ccc(Cl)c(Cl)c1 (stereo not given)
6. CN(C(=O)C12C3(C(=O)O)C4C5(C(=O)O)C3C1(C(=O)O)C5C42C(=O)O)C(C)(C)C (stereo not given)
7. Fc1cccc(-c2nc(-c3c[nH]c4ncccc34)cs2)c1
8. CC(C)C1COC(C(C)(C)C2=N[C@@H](C(C)C)CO2)=N1 (stereo not given in full)

[reply]
> 100 µM
5.23 µM
> 100 µM
> 100 µM
17.5 µM
> 100 µM
> 100 µM
> 100 µM

Okay, here is my list. What is TGI for each of these?
1. CCOc1cc2cnc3c4cc(OC)c(OC)cc4ccc3c2cc1OC
2. COc1cc2c(cc1OC)C(Cc1cc(Br)c(OC)c(OC)c1)=[N+](C)CC2

[reply]
1. > 100 µM
2. > 100 µM

###

Tested on: HCT-15 colon
protocol text: NCI tumour cell line growth inhibition, 48 h
Assignment: determine reported TGI for the given compounds.

Example compounds with recorded TGI:
1. CN(CCCN1CCCC1)CCCN(C)C(=O)Cc1ccc(Cl)c(Cl)c1    > 87 µM
2. CCSc1nc(N)c(C#N)c(-c2ccc(OC)c(OC)c2)c1C#N    > 50 µM
3. COc1ccc(/C=N/C2=NNC(C)(c3ccccc3O)N2C(Cc2c[nH]c3ccccc23)C(=O)O)cc1 (stereo unspecified)    11.8 µM
4. O=[N+]([O-])c1ccc2nc(/C=C(\O)c3ccccc3)c(NC34CC5CC(CC(C5)C3)C4)nc2c1    > 10 µM
5. O=C(c1ccccc1)N1CCC(Nc2cccnc2)O1 (stereo unspecified)    > 100 µM

Okay, here is my list. What is TGI for each of these?
1. CSc1ccc(NC(=O)CCl)cc1
2. Oc1ccc(Cl)cc1C1=Nn2c(COc3ccc4c(c3)CCCC4)nnc2SC1
3. Cc1ccc(Nn2c(SCC(=O)Nc3nc(-c4ccccc4)cs3)nc(C)c2C)cc1

[reply]
> 10 µM
36.7 µM
> 100 µM

Okay, here is my list. What is TGI for each of these?
1. OC1CCSc2ccccc21 (stereo unspecified)
2. C/C(=N\NC(N)=S)C(CN1CCCCC1)C(C1=C(O)c2ccccc2OC1)c1ccccc1 (stereo unspecified)
3. O=S(C(c1ccccc1)=P(c1ccccc1)(c1ccccc1)c1ccccc1)c1ccc(Cl)cc1 (stereo unspecified)
4. CCCCCC/C=C\CCCCCCCCCc1cccc(OC)c1O
5. CCSc1nnc(-c2ccc3ccccc3c2O)n1-c1ccccc1
6. COc1ccccc1C(=O)Nc1ccc(Cl)c(C(=O)OC(C)C)c1

[reply]
1: > 100 µM; 2: > 100 µM; 3: > 100 µM; 4: > 100 µM; 5: > 100 µM; 6: > 100 µM

Okay, here is my list. What is TGI for each of these?
1. C#CCn1c2c(c3ccccc3c1=O)C(=O)c1ccccc1-2
2. Nc1n[nH]c2cc(F)c([C@@H]3Nc4c(F)cc5[nH]ncc5c4[C@H]4C5CCC(C5)[C@@H]34)cc12 (stereo partly specified)
3. Cc1cc(O)cc(-c2nn(C)cc2-c2cc(N3CCOCC3)nc(-c3cccnc3)n2)c1
4. CN1CCN(c2ccc(NC(=O)c3cncnc3Nc3ccc4c(ccn4Cc4cccc(F)c4)c3)cc2)CC1
5. COc1ccc(-n2nc(C(=O)NCC(=O)Nc3nc4cc(OC)ccc4s3)c3ccccc3c2=O)cc1
6. CCOC(=O)/C=C/C1=C(Br)[C@@]2(C)CC[C@@H]3c4ccc(O)cc4CC[C@H]3[C@@H]2C1
7. CCCCSCCC(N)P(=O)(O)O (stereo unspecified)

[reply]
["> 100 µM", "3.69 µM", "23.4 µM", "4 µM", "> 100 µM", "24.4 µM", "> 100 µM"]
